target under test: T1, human complement component C5 (human, UniProt P01031 19-673; P01031 678-1676)
T1 construct: mature; Mature C5 is a disulphide-linked beta and alpha chain cut from one precursor; Terbium-labelled in the FRET assays, biotinylated in part of the phage ELISA; also called human C5; C5-Tb
T1 sequence (P01031 19-673 limits assumed, chain 1 of 2): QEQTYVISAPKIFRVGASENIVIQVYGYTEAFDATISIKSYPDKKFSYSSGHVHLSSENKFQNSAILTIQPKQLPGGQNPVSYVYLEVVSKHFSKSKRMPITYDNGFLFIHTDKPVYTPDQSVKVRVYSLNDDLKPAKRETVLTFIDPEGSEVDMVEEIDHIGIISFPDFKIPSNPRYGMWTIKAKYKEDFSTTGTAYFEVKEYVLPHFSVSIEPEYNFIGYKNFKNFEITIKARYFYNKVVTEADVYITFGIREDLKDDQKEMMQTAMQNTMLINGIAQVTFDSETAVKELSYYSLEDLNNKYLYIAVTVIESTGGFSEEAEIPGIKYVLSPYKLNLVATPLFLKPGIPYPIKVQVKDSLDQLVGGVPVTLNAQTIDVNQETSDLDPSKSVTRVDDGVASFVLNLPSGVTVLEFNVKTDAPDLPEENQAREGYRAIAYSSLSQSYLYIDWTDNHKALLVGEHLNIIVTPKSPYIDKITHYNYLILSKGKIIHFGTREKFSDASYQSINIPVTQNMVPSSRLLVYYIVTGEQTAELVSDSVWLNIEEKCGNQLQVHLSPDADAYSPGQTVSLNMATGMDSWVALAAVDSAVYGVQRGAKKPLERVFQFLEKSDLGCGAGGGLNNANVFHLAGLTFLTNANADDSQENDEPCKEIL
T1 sequence (P01031 678-1676 limits assumed, chain 2 of 2): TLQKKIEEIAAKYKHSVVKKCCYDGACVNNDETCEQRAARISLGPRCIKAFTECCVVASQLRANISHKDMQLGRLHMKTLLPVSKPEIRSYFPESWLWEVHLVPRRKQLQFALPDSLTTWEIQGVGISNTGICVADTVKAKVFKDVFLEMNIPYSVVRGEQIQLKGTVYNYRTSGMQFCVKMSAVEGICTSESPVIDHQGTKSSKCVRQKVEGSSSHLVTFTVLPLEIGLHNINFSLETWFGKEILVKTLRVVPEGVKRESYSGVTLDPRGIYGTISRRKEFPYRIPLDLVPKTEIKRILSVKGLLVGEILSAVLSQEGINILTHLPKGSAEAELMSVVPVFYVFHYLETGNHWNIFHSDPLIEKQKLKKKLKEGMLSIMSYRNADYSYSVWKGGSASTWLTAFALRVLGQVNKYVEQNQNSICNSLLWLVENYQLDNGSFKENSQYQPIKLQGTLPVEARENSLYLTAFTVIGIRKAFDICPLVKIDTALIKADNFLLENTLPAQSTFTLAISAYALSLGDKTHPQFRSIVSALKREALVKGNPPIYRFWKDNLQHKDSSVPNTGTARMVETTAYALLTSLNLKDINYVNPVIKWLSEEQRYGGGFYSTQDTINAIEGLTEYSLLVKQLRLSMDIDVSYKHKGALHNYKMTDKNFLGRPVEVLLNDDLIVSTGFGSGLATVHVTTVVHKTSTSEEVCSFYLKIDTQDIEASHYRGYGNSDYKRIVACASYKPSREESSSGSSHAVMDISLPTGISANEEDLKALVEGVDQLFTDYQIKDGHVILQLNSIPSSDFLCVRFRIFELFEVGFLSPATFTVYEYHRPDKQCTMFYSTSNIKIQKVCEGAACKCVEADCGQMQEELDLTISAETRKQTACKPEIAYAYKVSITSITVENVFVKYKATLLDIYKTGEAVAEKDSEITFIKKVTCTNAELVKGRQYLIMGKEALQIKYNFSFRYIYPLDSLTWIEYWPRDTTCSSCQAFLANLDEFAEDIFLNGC
procedure details: SPR, cysteines reduced and capped with iodoacetamide; K57, cysteines reduced and capped with iodoacetamide
Ends that are not written are not given here. * marks the point of attachment. Cam = NC(=O)C*
observable: pKd
For clarity, pKd is expressed as the negative log10 of concentration in mol/L.

Summary for this binder, GC(Cam)PPGYKSGVDC(Cam)SPGSEC(Cam)KWGC(Cam)YAVDGRRYGGYGADSGVGS (also called K57 (loss of disulphide bonds)) [K57, reduced and cysteines capped with iodoacetamide] : pKd is 7.12
